Attribution: patent US12331026B2

- Target: CDK2 (Homo sapiens, UniProt P24941)
- Construct: endogenous in cells; host or cells: OVCAR3 cells
- Method Notes: Phospho-RB measurement in OVCAR3 cells (HTRF phospho-RB S807/811)
- Type: cell-based
- Measurement Parameters: phosphorylation of RB protein at S807/811, HTRF, 24 h compound treatment, 0.3 to 10,000 nM, read-out: pRb (uM)
Parameter: IC50 (µM)
Your answer should be a plain number; it is taken to be in µM.

{"columns": ["Compound", "IC50 (µM)"],
 "data": [
  ["O=S1(=O)C[C@@H]2[C@H](C1)[C@@H]2Nc1nccc(-c2sc(C34CC5CC(CC(C5)C3)C4)nc2-c2cccc(NS(=O)(=O)c3c(F)cccc3F)c2F)n1 [Example 76]", 0.87],
  ["CC1(C#N)CC2CCC(C1)N2c1nc(-c2cccc(NS(=O)(=O)c3c(F)cccc3C(F)(F)F)c2F)c(-c2ccnc(NC3CC4(C3)CS(=O)(=O)C4)n2)s1 (centres unmarked) [Example 151]", 0.051],
  ["CC1(C)CCN1c1nc(-c2cccc(NS(=O)(=O)c3c(F)cccc3C(F)(F)F)c2F)c(-c2ccnc(N[C@H]3[C@@H]4CS(=O)(=O)C[C@@H]43)n2)s1 [Example 121]", 0.05],
  ["CN1CC2CCC(C1)N2c1nc(-c2cccc(NS(=O)(=O)c3c(OC(F)F)cccc3C(F)(F)F)c2F)c(-c2ccnc(NC3CC4(C3)CS(=O)(=O)C4)n2)s1 [Example 75]", 0.85],
  ["O=S1(=O)C[C@@H]2[C@H](C1)[C@H]2Nc1nccc(-c2sc(C34CCC(CC3)C4)nc2-c2cccc(NS(=O)(=O)c3c(F)cccc3F)c2F)n1 [Example 99]", 0.06],
  ["CS(=O)(=O)C1CCC(Nc2nccc(-c3sc(C45CC(F)(C4)C5)nc3-c3cccc(NS(=O)(=O)c4c(F)cccc4C(F)(F)F)c3F)n2)CC1 (centres unmarked) [Example 27]", 0.066]
]}

-- ask So what's the measured IC50 for this one? COc1cccc(F)c1S(=O)(=O)Nc1cccc(-c2nc(N3C4CCC3CN(C)C4)sc2-c2ccnc(NC3CC4(C3)CS(=O)(=O)C4)n2)c1F [Example 57]
-- reply 0.6

-- ask Any idea what IC50 was measured for O=S1(=O)CC2(CC(Nc3nccc(-c4sc(C56CC(C(F)(F)F)(C5)C6)nc4-c4cccc(NS(=O)(=O)c5c(F)cccc5C(F)(F)F)c4F)n3)C2)C1 [Example 88] ?
-- reply 0.09
